In this section, each of the molecules is paired with its reported melting point.

# count of solved cases: 6
| COMPOUND | RESULT VALUE |
| --- | --- |
| C=CCn1c(SCC(=O)Nc2sc(C(=O)OCC)c(C)c2C(N)=O)nc2scc(-c3ccccc3)c2c1=O | 136 to 140 °C |
| C=CCn1c(SCC(=O)Nc2sc3c(c2C(=O)OCC)CCC3)nc2scc(-c3ccccc3)c2c1=O | 166 to 170 °C |
| NC(=O)c1c(NC(=O)CSc2nc3scc(-c4ccccc4)c3c(=O)n2-c2ccc([N+](=O)[O-])cc2)sc2c1CCC2 | 271 to 274 °C |
| C=CCn1c(SCC(=O)Nc2nc3ccccc3s2)nc2scc(-c3ccccc3)c2c1=O | 192 to 194 °C |
| NC(=O)c1c(NC(=O)CSc2nc3scc(-c4ccccc4)c3c(=O)n2-c2cccc(F)c2)sc2c1CCC2 | 234 to 239 °C |
| NC(=O)c1c(NC(=O)CSc2nc3scc(-c4ccccc4)c3c(=O)n2Cc2ccccc2)sc2c1CCC2 | 163 to 167 °C |

// sample C=CCn1c(SCC(=O)Nc2sc3c(c2C(N)=O)CCCC3)nc2scc(-c3ccccc3)c2c1=O , its melting point was 212 to 214 °C

Just so you know, measured melting point for NC(=O)c1c(NC(=O)CSc2nc3scc(-c4ccccc4)c3c(=O)n2-c2ccc(Cl)cc2)sc2c1CCC2 came out at 247 to 249 °C
